Biological target: Adenosine receptor A1 (Rattus norvegicus) (UniProt P25099)
Sequence (whole entry): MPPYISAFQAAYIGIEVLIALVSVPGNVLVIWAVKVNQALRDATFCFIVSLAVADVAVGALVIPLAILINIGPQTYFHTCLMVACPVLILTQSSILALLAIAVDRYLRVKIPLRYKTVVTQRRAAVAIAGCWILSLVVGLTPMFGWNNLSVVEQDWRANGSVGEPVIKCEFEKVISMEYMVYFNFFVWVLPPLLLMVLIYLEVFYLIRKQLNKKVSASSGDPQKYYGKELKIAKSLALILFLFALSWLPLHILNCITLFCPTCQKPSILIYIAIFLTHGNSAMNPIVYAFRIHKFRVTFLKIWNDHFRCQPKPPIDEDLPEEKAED
Assay: Displacement of [3H]DPCPX form adenosine A1 receptor in rat cortex membrane at 1 uM
Assay type: cell membranes
Activity strictly under 20% means fulfilled; at 20% or over means not fulfilled.

Challenge: # check: Activity < 20% for `C=CCn1c(=O)c2[nH]c(Cc3c(F)cccc3F)nc2n(Cc2ccco2)c1=O`
Response given: fulfilled

Challenge: # check: Activity < 20% for `CCSCCn1c(=O)c2[nH]c(Cc3cccs3)nc2n(Cc2ccco2)c1=O`
Response given: not fulfilled

Challenge: # check: Activity < 20% for `CCCCCn1c(=O)c2[nH]c(Cc3cccs3)nc2n(Cc2ccco2)c1=O`
Response given: not fulfilled

Challenge: # check: Activity < 20% for `COCCn1c(=O)c2[nH]c(Cc3cccs3)nc2n(Cc2ccco2)c1=O`
Response given: fulfilled

Continuing:
Challenge: # check: Activity < 20% for `CCOCCn1c(=O)c2[nH]c(Cc3ccccc3)nc2n(Cc2ccco2)c1=O`
Response given: not fulfilled

Challenge: # check: Activity < 20% for `O=c1c2[nH]c(Cc3c(F)cccc3F)nc2n(Cc2ccco2)c(=O)n1CC1CC1`
Response given: fulfilled

Challenge: # check: Activity < 20% for `Cn1c(=O)c2[nH]c(Cc3ccco3)nc2n(Cc2ccco2)c1=O`
Response given: fulfilled

Challenge: # check: Activity < 20% for `CCn1c(=O)c2[nH]c(Cc3ccco3)nc2n(Cc2ccco2)c1=O`
Response given: not fulfilled

Challenge: # check: Activity < 20% for `COCCn1c(=O)c2[nH]c(Cc3ccccc3)nc2n(Cc2ccco2)c1=O`
Response given: not fulfilled

Challenge: # check: Activity < 20% for `CCSCCn1c(=O)c2[nH]c(Cc3ccco3)nc2n(Cc2ccco2)c1=O`
Response given: not fulfilled

====

Target: Adenosine receptor A2b (Homo sapiens) (UniProt P29275)
Sequence (P29275 whole entry): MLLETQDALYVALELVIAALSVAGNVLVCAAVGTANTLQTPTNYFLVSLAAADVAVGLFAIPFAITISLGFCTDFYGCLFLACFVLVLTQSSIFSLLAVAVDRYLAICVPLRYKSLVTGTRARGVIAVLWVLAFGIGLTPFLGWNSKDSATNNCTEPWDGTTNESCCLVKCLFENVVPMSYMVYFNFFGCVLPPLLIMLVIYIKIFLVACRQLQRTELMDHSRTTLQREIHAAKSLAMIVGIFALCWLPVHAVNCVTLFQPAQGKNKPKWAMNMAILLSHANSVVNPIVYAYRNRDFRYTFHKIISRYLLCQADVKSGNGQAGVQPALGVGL
Experiment: Displacement of [3H]DPCPX from human adenosine A2B receptor expressed in HEK293 cells at 1 uM
Format: cell-based
EXPERIMENTAL_READOUT: Activity (%)
Answer with a number only, understood to be in %.

Solved entries:
Challenge: Name the recorded Activity for `COCCn1c(=O)c2[nH]c(Cc3cccs3)nc2n(Cc2ccco2)c1=O` .
Response given: 70

Challenge: Name the recorded Activity for `C=CCn1c(=O)c2[nH]c(Cc3c(F)cccc3F)nc2n(Cc2ccco2)c1=O` .
Response given: 24

Challenge: Name the recorded Activity for CC[S+]([O-])CCn1c(=O)c2[nH]c(Cc3ccco3)nc2n(Cc2ccco2)c1=O (stereo not drawn) .
Response given: 13

Challenge: Name the recorded Activity for `CCCCCn1c(=O)c2[nH]c(Cc3ccccc3)nc2n(Cc2ccco2)c1=O` .
Response given: 47

Challenge: Name the recorded Activity for `CC(C)Cn1c(=O)c2[nH]c(Cc3ccccc3)nc2n(Cc2ccco2)c1=O` .
Response given: 33

Continuing:
Challenge: Name the recorded Activity for CC[S+]([O-])CCn1c(=O)c2[nH]c(Cc3cccs3)nc2n(Cc2ccco2)c1=O (stereo not drawn) .
Response given: 33

Challenge: Name the recorded Activity for `COCCn1c(=O)c2[nH]c(Cc3ccccc3)nc2n(Cc2ccco2)c1=O` .
Response given: 65

Challenge: Name the recorded Activity for `CCCn1c(=O)c2[nH]c(Cc3cccs3)nc2n(Cc2ccco2)c1=O` .
Response given: 68

Challenge: Name the recorded Activity for `COCCn1c(=O)c2[nH]c(Cc3c(F)cccc3F)nc2n(Cc2ccco2)c1=O` .
Response given: 70

Challenge: Name the recorded Activity for `CCCn1c(=O)c2[nH]c(Cc3ccco3)nc2n(Cc2ccco2)c1=O` .
Response given: 66

Challenge: Name the recorded Activity for `CCOCCn1c(=O)c2[nH]c(Cc3cccs3)nc2n(Cc2ccco2)c1=O` .
Response given: 27

Challenge: Name the recorded Activity for `O=c1c2[nH]c(Cc3c(F)cccc3F)nc2n(Cc2ccco2)c(=O)n1CC1CC1` .
Response given: 59

Challenge: Name the recorded Activity for `CCOCCn1c(=O)c2[nH]c(Cc3ccccc3)nc2n(Cc2ccco2)c1=O` .
Response given: 31

Challenge: Name the recorded Activity for CC[S+]([O-])CCn1c(=O)c2[nH]c(Cc3ccccc3)nc2n(Cc2ccco2)c1=O (stereo not drawn) .
Response given: 9

Challenge: Name the recorded Activity for `O=c1c2[nH]c(Cc3cccs3)nc2n(Cc2ccco2)c(=O)n1CC1CC1` .
Response given: 42

Challenge: Name the recorded Activity for `CCCCCn1c(=O)c2[nH]c(Cc3cccs3)nc2n(Cc2ccco2)c1=O` .
Response given: 17

Challenge: Name the recorded Activity for `CCS(=O)(=O)CCn1c(=O)c2[nH]c(Cc3ccccc3)nc2n(Cc2ccco2)c1=O` .
Response given: 20

Challenge: Name the recorded Activity for `CC(C)Cn1c(=O)c2[nH]c(Cc3cccs3)nc2n(Cc2ccco2)c1=O` .
Response given: 44
